FYI, the data here is from a melting point compilation (Tetko et al.).

readout name: melting point

{"compound": "O=C(O)Cc1cccc(-c2cc(C(=O)CCCCC(=O)c3ccc(OC4OC(CO)C(O)C(O)C4O)c(-c4cccc(CC(=O)O)c4)c3)ccc2OC2OC(CO)C(O)C(O)C2O)c1 (stereo not drawn)", "readout name": "melting point", "measured value": "127 to 129 °C"}
{"compound": "CCCc1[nH]c2ccccc2c1C1(c2ccc(N(CC)CC)cc2OCCCCOc2cc(N(CC)CC)ccc2C2(c3c(CCC)[nH]c4ccccc34)OC(=O)c3ccccc32)OC(=O)c2ccccc21 (stereo not drawn)", "readout name": "melting point", "measured value": "140 °C"}
{"compound": "COc1cc(OC)c(/C=C/C(c2ccc(OC)c(NC(=O)c3ccccc3)c2)S(=O)(=O)C(/C=C/c2c(OC)cc(OC)cc2OC)c2ccc(OC)c(NC(=O)c3ccccc3)c2)c(OC)c1 (stereo not drawn)", "readout name": "melting point", "measured value": "163 to 166 °C"}
{"compound": "CC1N=C(c2ccccc2)c2cc(Cl)ccc2-n2c1nnc2C(CN(C)C)c1ccccc1 (stereo not drawn)", "readout name": "melting point", "measured value": "200 to 203 °C"}

Now look at this one.
## Input What value of measured melting point is listed for `Brc1cc(C(Br)(Br)C(Br)(Br)C(Br)(Br)c2ccccc2)c(Br)c(Br)c1Br` ?
## Output 309 to 311 °C

====

readout name: melting point (°C)
Express it in °C; write the number only.

{"molecule": "CO/N=C(\\C(=O)N[C@@H]1C(=O)N2C(C(=O)OC(C)(C)C)=C(CI)SC[C@H]12)c1nc(C(c2ccccc2)(c2ccccc2)c2ccccc2)sc1N", "melting point / °C": 150}

Next item in the queue.
## Input Which value of melting point has been reported for `CCN1CCN(c2ccc(-c3ccnc(Nc4cc(OC)c(OC)c(OC)c4)n3)cn2)CC1` in the records?
## Output 139

====

Residues, ends and D or L forms follow the SMILES beside them. *: point of attachment. Boc = CC(C)(C)OC(=O)*; Bn = c1ccc(C*)cc1
readout name: melting point

Reference set, count: 3
{"compound": "CC(C)CCCC(C)CCC1(CCC(C)CCCC(C)C)c2cc(Br)ccc2-c2ccc(-c3nc4cc5sc(-c6ccc7c(c6)C(CCC(C)CCCC(C)C)(CCC(C)CCCC(C)C)c6cc(Br)ccc6-7)nc5cc4s3)cc21 (stereo not given)", "readout name": "melting point", "measured value": "163 to 166 °C"}
{"compound": "CC(C)C(NC(=O)C(Cc1ccc(OCc2ccccc2)cc1)NC(=O)C(COCc1ccccc1)NC(=O)C(Cc1c[nH]c2ccccc12)NC(=O)OC(C)(C)C)C(=O)O (stereo not given) (Boc-WS(Bn)Y(Bn)V-OH; configuration not given here)", "readout name": "melting point", "measured value": "98 to 100 °C"}
{"compound": "CCSC(C)CC1CC(=O)C(=C(CC)NOCC=CCl)C(=O)C1 (stereo not given)", "readout name": "melting point", "measured value": "< 25 °C"}

## Input Give the measured melting point of CCC(Cc1c(I)cc(I)c(NC(=O)CCCCCNC(=O)C(COCc2ccccc2)N2CCNCCNCCNCC2)c1I)C(=O)O (stereo not given) .
## Output 144 °C

## Input Endpoint output: melting point of CC(C)(C)c1cc(CCC(=O)OC2C(C)(C)C(OC(=O)CCc3cc(C(C)(C)C)c(O)c(C(C)(C)C)c3)C(C)(C)C(OC(=O)CCc3cc(C(C)(C)C)c(O)c(C(C)(C)C)c3)C2(C)C)cc(C(C)(C)C)c1O (stereo not given) . Value?
## Output 105 to 115 °C

====

readout name: melting point

## Input Quick check: melting point of `Brc1cc(Br)c(Oc2nc(Oc3c(Br)cc(Br)cc3Br)nc(Oc3c(Br)cc(Br)cc3Br)n2)c(Br)c1` ?
## Output 215 to 218 °C

## Input Please look up its melting point: CC(NC(=O)C(CC(C(=O)O)C(C)(C)C)NC(=O)C(CC(C(=O)O)C(C)(C)C)NC(=O)C(NC(=O)OCc1ccccc1)C(C)C)C(=O)NC(CC(C(=O)O)C(C)(C)C)C(=O)NC(CC(N)=O)C(=O)OC(C)(C)C (centres undefined)
## Output 217 to 219 °C

## Input Dear colleague, I am looking for the recorded melting point of the following compound: `CN(C)CCCN1c2ccccc2Sc2ccc(Cl)cc21`
## Output 57 °C

## Input # melting point lookup, item `Cc1cc(CNC(=O)c2nc(N3CCOCC3)n(C)c(=O)c2O)ccc1F`
## Output 182 to 185 °C

## Input Field request: melting point | item: `Cc1ccc(C(=O)OCCN(C)C)cc1-n1c(C)cc(OCc2ccc(F)cc2CNC(=O)Nc2cc(C(C)(C)C)nn2-c2cccc(OCCO)c2)c(Cl)c1=O`
## Output 158 to 160 °C

## Input Could you share which melting point value was measured for COc1cc(OC)c(/C=C/C(c2ccc(OC)c(NC(=O)c3ccc(N)cc3)c2)S(=O)(=O)C(/C=C/c2c(OC)cc(OC)cc2OC)c2ccc(OC)c(NC(=O)c3ccc(N)cc3)c2)c(OC)c1 (centres undefined) ?
## Output 137 to 140 °C

## Input Would you kindly share the measured melting point for CC[C@H](C)[C@H](NC(=O)N(C)Cc1ccccn1)C(=O)NC(Cc1ccccc1)C(O)C(O)C(Cc1ccccc1)NC(=O)[C@@H](NC(=O)N(C)Cc1ccccn1)[C@@H](C)CC (some centres undefined) ?
## Output 160 to 161 °C

## Input I am curious: what melting point value has been reported for `CC(C)(C)c1cc(-c2cc(C(C)(C)C)cc(C(C)(C)C)c2OCP(=O)(c2ccccc2)c2ccccc2)c(OCP(=O)(c2ccccc2)c2ccccc2)c(C(C)(C)C)c1` ?
## Output 211 to 212 °C

## Input # get_value(readout='melting point', item= CCN(CC)CCN=S(=O)(c1ccccc1)c1cccnc1 (centres undefined) )
## Output 130 °C

## Input Consider the compound CC1(C)CC(C(O)CNc2nc(NCc3ccc(CNc4nc(NCC(O)C5CC(C)(C)NC(C)(C)C5)nc(NCC(O)C5CC(C)(C)NC(C)(C)C5)n4)cc3)nc(NCC(O)C3CC(C)(C)NC(C)(C)C3)n2)CC(C)(C)N1 (centres undefined) and give its measured melting point.
## Output 151 to 156 °C

====

readout name: melting point

{"molecule": "Clc1c(Br)c(Cl)c(COCc2c(Cl)c(Br)c(Cl)c(Br)c2Br)c(Br)c1Br", "melting point": "274 to 276 °C"}

## Input So what does the record say about melting point for `C=CC(=O)OCCCCCCCCCCCOc1ccc(-c2nc(-c3ccc(OCCCCCCCCCCCOC(=O)C=C)cc3O)nc(-c3ccc(OCCCCCCCCCCCOC(=O)C=C)cc3O)n2)c(O)c1` ?
## Output 72.8 °C

## Input Query: melting point; subject: `CCCc1nn(C)c(C(=O)O)c1[N+](=O)[O-]`
## Output 122 to 126 °C

## Input Using the record for `CCCCCc1nc(C)c(C(=O)OCC)n1Cc1ccc2oc(-c3ccccc3-c3nnn(C(c4ccccc4)(c4ccccc4)c4ccccc4)n3)c(Br)c2c1` , report its melting point.
## Output 89 to 90 °C

## Input What does the record list as melting point for `CCCCCCCCCCCCc1cc(-c2c(Cl)c(Cl)c(-c3cc(CCCCCCCCCCCC)c(Br)s3)c3nsnc23)sc1Br` ?
## Output 60 to 61 °C

## Input Field request: melting point | item: `CS(C)(=O)=NC(=O)c1cc(Oc2ccc(C(F)(F)F)cc2Cl)ccc1[N+](=O)[O-]`
## Output 122 °C

## Input Can you look up the measured melting point of CN=S(=O)(Cc1ccc(Cl)nc1)c1nc(-c2ccc(OC)cc2)cs1 (stereo not given) for me?
## Output 160 to 163 °C

## Input # lookup: melting point of COc1cc(OC)c(/C=C/C(c2ccc(OC)c(NC(C)C(=O)O)c2)S(=O)(=O)C(/C=C/c2c(OC)cc(OC)cc2OC)c2ccc(OC)c(NC(C)C(=O)O)c2)c(OC)c1 (stereo not given)
## Output 176 to 180 °C

## Input Fill blank: measured melting point of the molecule `CCc1c(CCNC(=O)CCC(=O)CCC(=O)NCCc2ccc(OCc3ccccc3)c(OCc3ccccc3)c2CC)ccc(OCc2ccccc2)c1OCc1ccccc1` is ____.
## Output 188 to 192 °C

## Input Would you mind telling me what melting point value was observed for `Cc1ccccc1-n1c(-c2cc(-c3ccncc3)c(N3CCOCC3)s2)nc2ccccc2c1=O` ?
## Output 208 to 210 °C

## Input Any idea what melting point was measured for `CCCCCCCCCCCCCCCC(=O)OCC(COC(=O)CCCCCCCCCCCCCCC)OC(=O)CCCC(=O)Oc1cc(Cl)ccc1Oc1ccc(Cl)cc1Cl` ?
## Output 44 to 46 °C

## Input melting point lookup needed for O=S(=O)(C(/C=C/c1ccc(I)cc1)c1ccc(Br)cc1)C(/C=C/c1ccc(I)cc1)c1ccc(Br)cc1 (stereo not given) , thanks.
## Output 201 to 203 °C

## Input Looking for the measured melting point of CC(=O)OCC1OC(OC2C(COC(C)=O)OC(OC3C(COC(C)=O)OC(OCCBr)C(OC(C)=O)C3OC(C)=O)C(OC(C)=O)C2OC(C)=O)C(OC(C)=O)C(OC(C)=O)C1OC(C)=O (stereo not given) , can you help?
## Output 179 to 181 °C

## Input Recorded melting point of CN1C(=O)C(Br)=C(c2cn(C3OC(COCc4ccccc4)C(OCc4ccccc4)C(OCc4ccccc4)C3OCc3ccccc3)c3ccccc23)C1=O (stereo not given) , please.
## Output 55 °C
